The reported measurements were obtained from patent US9988343B2.

# test_system: HDAC6 (Homo sapiens)
# Sequence (Q9UBN7 whole entry): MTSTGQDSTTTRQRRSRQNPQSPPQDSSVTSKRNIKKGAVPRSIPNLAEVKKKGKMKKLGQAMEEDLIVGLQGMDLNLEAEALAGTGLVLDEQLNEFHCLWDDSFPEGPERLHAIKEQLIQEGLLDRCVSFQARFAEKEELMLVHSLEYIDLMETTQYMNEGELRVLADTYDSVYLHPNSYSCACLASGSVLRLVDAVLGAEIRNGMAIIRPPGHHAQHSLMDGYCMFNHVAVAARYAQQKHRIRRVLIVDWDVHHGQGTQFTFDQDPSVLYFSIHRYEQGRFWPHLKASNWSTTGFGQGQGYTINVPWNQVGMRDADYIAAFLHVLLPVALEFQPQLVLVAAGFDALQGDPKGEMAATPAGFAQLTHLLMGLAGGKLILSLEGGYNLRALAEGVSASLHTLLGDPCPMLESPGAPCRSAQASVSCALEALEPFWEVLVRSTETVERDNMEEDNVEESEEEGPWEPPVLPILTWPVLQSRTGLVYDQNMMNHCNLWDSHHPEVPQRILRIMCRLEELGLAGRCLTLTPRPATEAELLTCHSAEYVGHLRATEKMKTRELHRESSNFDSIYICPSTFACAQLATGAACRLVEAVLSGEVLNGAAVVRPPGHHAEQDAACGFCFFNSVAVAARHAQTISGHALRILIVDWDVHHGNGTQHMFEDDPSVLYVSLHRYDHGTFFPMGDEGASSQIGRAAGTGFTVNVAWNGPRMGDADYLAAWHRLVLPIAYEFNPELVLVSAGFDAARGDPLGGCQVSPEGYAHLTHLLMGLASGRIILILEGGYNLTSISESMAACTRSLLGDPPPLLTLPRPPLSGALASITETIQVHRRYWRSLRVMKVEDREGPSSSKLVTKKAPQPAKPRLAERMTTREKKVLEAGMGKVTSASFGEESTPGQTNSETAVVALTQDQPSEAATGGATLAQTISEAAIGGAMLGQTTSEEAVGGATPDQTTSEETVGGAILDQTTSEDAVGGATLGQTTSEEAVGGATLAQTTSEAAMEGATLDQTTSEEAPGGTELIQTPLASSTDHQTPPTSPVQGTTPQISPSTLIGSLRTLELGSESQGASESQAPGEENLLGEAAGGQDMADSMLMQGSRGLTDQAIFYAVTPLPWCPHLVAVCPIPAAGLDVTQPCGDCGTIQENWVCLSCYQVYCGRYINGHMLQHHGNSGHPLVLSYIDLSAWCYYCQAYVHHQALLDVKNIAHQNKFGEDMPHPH
# assay_comment: HDAC6 inhibitory activity (IC50)
# Assay type: biochemical
# condition_parameters: Table 3; read-out: IC50 against the deacetylase activity of HDAC6
pIC50: −log10 of the molar value.
reported_endpoint: pIC50

Data request: Could you tell me which pIC50 is on file for Nc1ccccc1NC(=O)c1cnccn1 [Compound 10, N-(2-aminophenyl)pyrazine-2-carboxamide] ?
Data returned: < 4.70

====

# test_system: UniProt:O15379
# assay_comment: HDAC3 inhibitory activity (IC50)
# Assay type: biochemical
# condition_parameters: Example 8; read-out: HDAC3 IC50
reported_endpoint: pIC50
Note on units: pIC50 is unitless, being -log10 of a concentration expressed in mol/L.

Data request: Could you tell me which pIC50 is on file for Nc1ccccc1NC(=O)c1cnccn1 [Compound 10, N-(2-aminophenyl)pyrazine-2-carboxamide] ?
Data returned: 6.54

====

Measured pIC50 values are reported for all entries that follow.
# test_system: HDAC3 (Homo sapiens)
# Sequence (O15379 whole entry): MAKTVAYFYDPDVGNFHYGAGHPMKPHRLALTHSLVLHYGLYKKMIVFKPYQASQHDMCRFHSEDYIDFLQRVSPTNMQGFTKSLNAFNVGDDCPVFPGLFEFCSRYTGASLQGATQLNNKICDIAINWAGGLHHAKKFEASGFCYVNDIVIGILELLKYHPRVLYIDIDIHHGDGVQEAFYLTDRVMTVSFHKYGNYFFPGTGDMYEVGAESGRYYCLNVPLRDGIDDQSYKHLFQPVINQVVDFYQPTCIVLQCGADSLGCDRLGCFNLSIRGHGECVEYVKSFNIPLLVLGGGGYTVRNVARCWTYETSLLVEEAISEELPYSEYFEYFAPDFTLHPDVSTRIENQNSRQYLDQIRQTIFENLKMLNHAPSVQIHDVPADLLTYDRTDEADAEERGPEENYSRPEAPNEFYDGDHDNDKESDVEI
# Sequence (Q9Y618 395-489 partner limits assumed): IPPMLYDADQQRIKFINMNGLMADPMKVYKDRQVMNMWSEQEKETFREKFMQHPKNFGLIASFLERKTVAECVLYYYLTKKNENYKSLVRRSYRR
# assay_comment: HDAC3 inhibitory activity (IC50)
# Assay type: biochemical
# condition_parameters: Table 2; read-out: HDAC3
Note on units: pIC50 is unitless, being -log10 of a concentration expressed in mol/L.

* Nc1ccccc1NC(=O)c1ccc(Cl)nc1 | 6.55
* O=C(Nc1ccc(F)cc1O)c1cccnc1 | 5.63
* O=C(Nc1ccccc1O)c1cccnc1 | 5.48
* CC(=O)Nc1ccc(C(=O)Nc2cc(-c3ccccc3)ccc2N)cc1 | 6.07
* Nc1ccccc1NC(=O)c1ccncc1 | 6.43
* O=C(Nc1ccccc1O)c1ccncc1 | 5.70
* Cc1ccc(C(=O)Nc2ccccc2N)cn1 | 6.67
* Nc1ccccc1NC(=O)c1cnccn1 [Compound 10, N-(2-aminophenyl)pyrazine-2-carboxamide] | 6.86

Data request: Could you tell me which pIC50 is on file for `O=C(Nc1ccccc1O)c1ccccn1` ?
Data returned: 5.44

Data request: Entry `CC(=O)Nc1ccc(C(=O)Nc2ccc(F)cc2N)cc1` please
Data returned: 7.15

Data request: Entry `Nc1ccccc1NC(=O)c1cnc(Nc2ccccc2)nc1` please
Data returned: 6.77

Data request: Entry `Nc1cc(F)ccc1NC(=O)c1cccnc1` please
Data returned: 5.71

Data request: Entry `Nc1cc(F)ccc1NC(=O)c1cnccn1` please
Data returned: 6.53

Data request: Entry `Nc1ccccc1NC(=O)c1ccccn1` please
Data returned: 6.46
